Assay: Antiproliferative activity against human U-87 MG cells expressing wild-type p53 incubated for 72 hrs by MTT assay
Type: functional, cell-based, U-87MG ATCC
pIC50: −log10 of the molar value.
observation.type: pIC50

CC(=O)N[C@@H](CC(C)C)C(=O)N[C@H](C(=O)N[C@@H](Cc1ccccc1)C(=O)N[C@H]1CCCCNCc2ccc(cc2)CNCCCC[C@@H](C(=O)N[C@@H](CO)C(=O)N[C@@H](C)C(=O)N[C@@H](C)C(N)=O)NC(=O)[C@H](CC(C)C)NC(=O)[C@H](CCC(N)=O)NC(=O)[C@H](C)NC(=O)[C@H](Cc2c[nH]c3ccccc23)NC(=O)[C@H](Cc2ccc(O)cc2)NC(=O)[C@H](Cc2c[nH]cn2)NC1=O)[C@@H](C)O    < 3.80

# ---- query compound ----
Using the record for `CC(=O)N[C@@H](CC(C)C)C(=O)N[C@H](C(=O)N[C@@H](Cc1ccccc1)C(=O)N[C@H]1CCCCNCc2ccc(cc2)CNCCCC[C@@H](C(=O)N[C@@H](CCC(N)=O)C(=O)N[C@@H](CC(C)C)C(=O)N[C@H](C(=O)N[C@@H](CO)C(=O)N[C@@H](C)C(=O)N[C@@H](C)C(N)=O)[C@@H](C)O)NC(=O)[C@H](Cc2c[nH]c3ccccc23)NC(=O)[C@H](Cc2ccc(O)cc2)NC(=O)[C@H](Cc2c[nH]cn2)NC1=O)[C@@H](C)O` , state its measured pIC50.
< 3.80

====

Experiment: Antiproliferative activity against human U-87 MG cells expressing wild-type p53 incubated for 72 hrs by MTT assay
Assay type: functional, cell-based, U-87MG ATCC
Listing: pIC50 of selected compounds
Entry type: numeric. Quantity: pIC50, the -log10 of concentration in molar units.

CSCC[C@H](NC(=O)[C@H](CC(C)C)NC(=O)[C@H](CCC(N)=O)NC(=O)[C@@H]1CCCCNCc2ccccc2CNCCCC[C@H](NC(=O)[C@H](Cc2ccccc2)NC(=O)[C@@H](NC(=O)[C@H](CC(C)C)NC(C)=O)[C@@H](C)O)C(=O)N[C@@H](CCC(=O)O)C(=O)N[C@@H](Cc2ccc(O)cc2)C(=O)N[C@@H](Cc2c[nH]c3ccccc23)C(=O)N1)C(=O)N[C@@H](CCC(N)=O)C(=O)N[C@@H](C)C(=O)N[C@@H](C)C(N)=O    3.98

# ---- query compound ----
Using the record for `CSCC[C@H](NC(=O)[C@H](CC(C)C)NC(=O)[C@H](CCC(N)=O)NC(=O)[C@@H]1CCCCNCc2cccc(c2)CNCCCC[C@H](NC(=O)[C@H](Cc2ccccc2)NC(=O)[C@@H](NC(=O)[C@H](CC(C)C)NC(C)=O)[C@@H](C)O)C(=O)N[C@@H](CCC(=O)O)C(=O)N[C@@H](Cc2ccc(O)cc2)C(=O)N[C@@H](Cc2c[nH]c3ccccc23)C(=O)N1)C(=O)N[C@@H](CCC(N)=O)C(=O)N[C@@H](C)C(=O)N[C@@H](C)C(N)=O` , state its measured pIC50.
4.66

====

Listing: half-life of selected molecules
Test: Stability of compound in 50 percent human serum assessed as half life measured for 24 hrs by HPLC analysis
Format: ADME, cell-free
Details: 50% human serum
State the answer as a number, implicitly in h.

CSCC[C@H](NC(=O)[C@H](CC(C)C)NC(=O)[C@H](CCC(N)=O)NC(=O)[C@@H]1CCCCNCc2ccc(cc2)CNCCCC[C@H](NC(=O)[C@H](Cc2ccccc2)NC(=O)[C@@H](NC(=O)[C@H](CC(C)C)NC(C)=O)[C@@H](C)O)C(=O)N[C@@H](CCC(=O)O)C(=O)N[C@@H](Cc2ccc(O)cc2)C(=O)N[C@@H](Cc2c[nH]c3ccccc23)C(=O)N1)C(=O)N[C@@H](CCC(N)=O)C(=O)N[C@@H](C)C(=O)N[C@@H](C)C(N)=O    3

# ---- query molecule ----
Using the record for `CC(=O)N[C@@H](CC(C)C)C(=O)N[C@H](C(=O)N[C@@H](Cc1ccccc1)C(=O)N[C@H]1CCCCNCc2cccc(c2)CNCCCC[C@@H](C(=O)N[C@@H](CCC(N)=O)C(=O)N[C@@H](CC(C)C)C(=O)N[C@H](C(=O)N[C@@H](CO)C(=O)N[C@@H](C)C(=O)N[C@@H](C)C(N)=O)[C@@H](C)O)NC(=O)[C@H](Cc2c[nH]c3ccccc23)NC(=O)[C@H](Cc2ccc(O)cc2)NC(=O)[C@H](Cc2c[nH]cn2)NC1=O)[C@@H](C)O` , state its measured half-life.
12

====

Experiment: Antiproliferative activity against human U-87 MG cells expressing wild-type p53 incubated for 72 hrs by MTT assay
Format: functional, cell-based, U-87MG ATCC
Listing: IC50 of selected molecules

CC(=O)N[C@@H](CC(C)C)C(=O)N[C@H](C(=O)N[C@@H](Cc1ccccc1)C(=O)N[C@H]1CCCCNCc2cccc(c2)CNCCCC[C@@H](C(=O)N[C@@H](CO)C(=O)N[C@@H](C)C(=O)N[C@@H](C)C(N)=O)NC(=O)[C@H](CC(C)C)NC(=O)[C@H](CCC(N)=O)NC(=O)[C@H](C)NC(=O)[C@H](Cc2c[nH]c3ccccc23)NC(=O)[C@H](Cc2ccc(O)cc2)NC(=O)[C@H](Cc2c[nH]cn2)NC1=O)[C@@H](C)O    52.9 µM
CSCC[C@H](NC(=O)[C@H](CC(C)C)NC(=O)[C@H](CCC(N)=O)NC(=O)[C@@H]1CCCCNCc2ccc(cc2)CNCCCC[C@H](NC(=O)[C@H](Cc2ccccc2)NC(=O)[C@@H](NC(=O)[C@H](CC(C)C)NC(C)=O)[C@@H](C)O)C(=O)N[C@@H](CCC(=O)O)C(=O)N[C@@H](Cc2ccc(O)cc2)C(=O)N[C@@H](Cc2c[nH]c3ccccc23)C(=O)N1)C(=O)N[C@@H](CCC(N)=O)C(=O)N[C@@H](C)C(=O)N[C@@H](C)C(N)=O    7.2 µM
CC(=O)N[C@@H](CC(C)C)C(=O)N[C@H](C(=O)N[C@@H](Cc1ccccc1)C(=O)N[C@H]1CCCCNCc2cccc(c2)CNCCCC[C@@H](C(=O)N[C@@H](CCC(N)=O)C(=O)N[C@@H](CC(C)C)C(=O)N[C@H](C(=O)N[C@@H](CO)C(=O)N[C@@H](C)C(=O)N[C@@H](C)C(N)=O)[C@@H](C)O)NC(=O)[C@H](Cc2c[nH]c3ccccc23)NC(=O)[C@H](Cc2ccc(O)cc2)NC(=O)[C@H](Cc2c[nH]cn2)NC1=O)[C@@H](C)O    3.7 µM
CC(=O)N[C@@H](CC(C)C)C(=O)N[C@H](C(=O)N[C@@H](Cc1ccccc1)C(=O)N[C@H]1CCCCNCC#CCNCCCC[C@@H](C(=O)N[C@@H](CCC(N)=O)C(=O)N[C@@H](CC(C)C)C(=O)N[C@H](C(=O)N[C@@H](CO)C(=O)N[C@@H](C)C(=O)N[C@@H](C)C(N)=O)[C@@H](C)O)NC(=O)[C@H](Cc2c[nH]c3ccccc23)NC(=O)[C@H](Cc2ccc(O)cc2)NC(=O)[C@H](Cc2c[nH]cn2)NC1=O)[C@@H](C)O    > 160 µM
CC(=O)N[C@@H](CC(C)C)C(=O)N[C@H](C(=O)N[C@@H](Cc1ccccc1)C(=O)N[C@H]1CCCCNCC#CCNCCCC[C@@H](C(=O)N[C@@H](CO)C(=O)N[C@@H](C)C(=O)N[C@@H](C)C(N)=O)NC(=O)[C@H](CC(C)C)NC(=O)[C@H](CCC(N)=O)NC(=O)[C@H](C)NC(=O)[C@H](Cc2c[nH]c3ccccc23)NC(=O)[C@H](Cc2ccc(O)cc2)NC(=O)[C@H](Cc2c[nH]cn2)NC1=O)[C@@H](C)O    > 160 µM
CC(=O)N[C@@H](CC(C)C)C(=O)N[C@H](C(=O)N[C@@H](Cc1ccccc1)C(=O)N[C@H]1CCCCNCc2ccccc2CNCCCC[C@@H](C(=O)N[C@@H](CO)C(=O)N[C@@H](C)C(=O)N[C@@H](C)C(N)=O)NC(=O)[C@H](CC(C)C)NC(=O)[C@H](CCC(N)=O)NC(=O)[C@H](C)NC(=O)[C@H](Cc2c[nH]c3ccccc23)NC(=O)[C@H](Cc2ccc(O)cc2)NC(=O)[C@H](Cc2c[nH]cn2)NC1=O)[C@@H](C)O    > 160 µM

Using the record for `CC(=O)N[C@@H](CC(C)C)C(=O)N[C@H](C(=O)N[C@@H](Cc1ccccc1)C(=O)N[C@H]1CCCCNCc2ccccc2CNCCCC[C@@H](C(=O)N[C@@H](CCC(N)=O)C(=O)N[C@@H](CC(C)C)C(=O)N[C@H](C(=O)N[C@@H](CO)C(=O)N[C@@H](C)C(=O)N[C@@H](C)C(N)=O)[C@@H](C)O)NC(=O)[C@H](Cc2c[nH]c3ccccc23)NC(=O)[C@H](Cc2ccc(O)cc2)NC(=O)[C@H](Cc2c[nH]cn2)NC1=O)[C@@H](C)O` , state its measured IC50.
> 160 µM

Using the record for `CC(=O)N[C@@H](CC(C)C)C(=O)N[C@H](C(=O)N[C@@H](Cc1ccccc1)C(=O)N[C@@H](CCC(=O)O)C(=O)N[C@H]1CCCCNCc2cccc(c2)CNCCCC[C@@H](C(=O)N[C@@H](CC(C)C)C(=O)N[C@H](C(=O)N[C@@H](CO)C(=O)N[C@@H](C)C(=O)N[C@@H](C)C(N)=O)[C@@H](C)O)NC(=O)[C@H](C)NC(=O)[C@H](Cc2c[nH]c3ccccc23)NC(=O)[C@H](Cc2ccc(O)cc2)NC1=O)[C@@H](C)O` , state its measured IC50.
138 µM

Using the record for `CC(=O)N[C@@H](CC(C)C)C(=O)N[C@H](C(=O)N[C@@H](Cc1ccccc1)C(=O)N[C@@H](CCC(=O)O)C(=O)N[C@H]1CCCCNCc2ccc(cc2)CNCCCC[C@@H](C(=O)N[C@@H](CC(C)C)C(=O)N[C@H](C(=O)N[C@@H](CO)C(=O)N[C@@H](C)C(=O)N[C@@H](C)C(N)=O)[C@@H](C)O)NC(=O)[C@H](C)NC(=O)[C@H](Cc2c[nH]c3ccccc23)NC(=O)[C@H](Cc2ccc(O)cc2)NC1=O)[C@@H](C)O` , state its measured IC50.
> 160 µM

Using the record for `CC(=O)N[C@@H](CC(C)C)C(=O)N[C@H](C(=O)N[C@@H](Cc1ccccc1)C(=O)N[C@@H](CCC(=O)O)C(=O)N[C@H]1CCCCNCc2ccccc2CNCCCC[C@@H](C(=O)N[C@@H](CC(C)C)C(=O)N[C@H](C(=O)N[C@@H](CO)C(=O)N[C@@H](C)C(=O)N[C@@H](C)C(N)=O)[C@@H](C)O)NC(=O)[C@H](C)NC(=O)[C@H](Cc2c[nH]c3ccccc23)NC(=O)[C@H](Cc2ccc(O)cc2)NC1=O)[C@@H](C)O` , state its measured IC50.
> 160 µM

Using the record for `CSCC[C@H](NC(=O)[C@H](CC(C)C)NC(=O)[C@H](CCC(N)=O)NC(=O)[C@@H]1CCCCNCC#CCNCCCC[C@H](NC(=O)[C@H](Cc2ccccc2)NC(=O)[C@@H](NC(=O)[C@H](CC(C)C)NC(C)=O)[C@@H](C)O)C(=O)N[C@@H](CCC(=O)O)C(=O)N[C@@H](Cc2ccc(O)cc2)C(=O)N[C@@H](Cc2c[nH]c3ccccc23)C(=O)N1)C(=O)N[C@@H](CCC(N)=O)C(=O)N[C@@H](C)C(=O)N[C@@H](C)C(N)=O` , state its measured IC50.
> 160 µM

Sourced from ChEMBL document CHEMBL6120948
